- TARGET_SYSTEM: ScHof1
- PROTOCOL_SUMMARY: SPOT peptide array binding signal intensity (averaged, normalized) (arbitrary units (background-subtracted, floor 0; scale differs between SH3 domains)); higher = stronger binding of the SH3 domain to the peptide
MEASUREMENT_NAME: SPOT peptide array binding signal intensity
Numbers only.

Here are 6 binders together with their reported answers.
AERNYAPRLPRRETS :: 17.1
SSSSTPPTLPPRRIE :: 122
RRSKSLPTTPGIRSG :: 1.25
KFIPSRPAPKPPSSA :: 1
QRIRKIPGIPLMSVG :: 2
ANNQGPPNLPARDKS :: 2

Give SPOT peptide array binding signal intensity for each of the items listed below.
1. PPPPPPPPPPPLPQS
2. EQEEIAPSLPSRNSI

[20, 1.5]
